MEASURED_PARAMETER: melting point

Illustrative cases are given below, each with its answer.
| MOLECULE | melting point |
| --- | --- |
| Cc1c(SCC2CCCN(C)C2)ccnc1CNc1cnc2ccccc2c1 (stereo not drawn) | 106 to 108 °C |
| Cc1c(OCCOCCSCc2cccnc2)ccnc1CNc1cnc2ccccc2c1 | 84 to 86 °C |
| Cc1c(OCCCCSCCO)ccnc1CNc1cnc2ccccc2c1 | 119 to 120 °C |
| Cc1c(SCCCSCC2CN(CC3CC3)C(=O)O2)ccnc1CNc1cnc2ccccc2c1 (stereo not drawn) | 78 to 81 °C |
| Cc1c(SCCCSCCCn2cc([N+](=O)[O-])nc2C)ccnc1CNc1cnc2ccccc2c1 | 95 to 99 °C |
| Cc1c(SCCCSCC2CN(C(C)C)C(=O)O2)ccnc1CNc1cnc2ccccc2c1 (stereo not drawn) | 100 to 104 °C |
| Cc1c(SCCCN2CCNCC2)ccnc1CNc1cnc2ccccc2c1 | 105 to 108 °C |
| Cc1c(SCCCSCCO)ccnc1CNc1cnc2ccccc2c1 | 125 to 126 °C |

Alright, here's another molecule for you.
Assign melting point to the following record: Cc1c(OCCOCCSCc2ccccn2)ccnc1CNc1cnc2ccccc2c1
65 to 67 °C

Reference for the values: patent US6479514B1
